Molecular target: PTGER4 (EP4) (Homo sapiens)
Construct: host or cells: HEK 293 (PathHunter PTGER4 b-arrestin cell line)
Sequence (P35408 whole entry): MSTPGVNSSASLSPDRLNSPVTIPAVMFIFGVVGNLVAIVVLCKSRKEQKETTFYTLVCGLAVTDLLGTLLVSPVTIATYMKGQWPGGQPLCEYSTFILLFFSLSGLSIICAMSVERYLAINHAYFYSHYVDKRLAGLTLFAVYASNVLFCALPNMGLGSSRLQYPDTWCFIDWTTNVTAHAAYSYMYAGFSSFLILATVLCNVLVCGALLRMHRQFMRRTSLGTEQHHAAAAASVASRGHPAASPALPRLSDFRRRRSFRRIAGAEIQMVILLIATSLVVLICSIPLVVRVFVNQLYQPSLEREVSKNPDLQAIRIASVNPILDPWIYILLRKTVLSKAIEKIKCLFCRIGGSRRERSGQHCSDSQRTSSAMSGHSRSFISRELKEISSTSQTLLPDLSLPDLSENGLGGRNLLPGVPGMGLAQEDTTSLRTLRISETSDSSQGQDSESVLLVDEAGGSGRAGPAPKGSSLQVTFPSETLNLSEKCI
Assay: hEP4 b-arrestin assay (PathHunter HEK 293 PTGER4 b-arrestin cells)
Assay type: cell-based
Conditions: antagonistic activity, beta-arrestin assay; read-out: hEP4 b-arr IC50
assay-readout: IC50 (nM)

These solved cases illustrate the format of a correct answer.
>  <compound>
CCOc1cc(-c2cc(NCCc3c(C)sc4c(C)cccc34)ncn2)sc1C(=O)O [Example 36]

>  <assay-readout>
IC50

>  <reported-value>
26

$$$$
>  <compound>
COc1cc(-c2cc(NCCc3c(C)sc4c(C)cc(F)cc34)ncn2)ccc1-c1cc(O)no1 [Example 203]

>  <assay-readout>
IC50

>  <reported-value>
239

$$$$
>  <compound>
CCCOc1cc(-c2cc(NCCc3c(C)sc4c(Cl)ccc(Cl)c34)ncn2)ccc1C(=O)O [Example 102]

>  <assay-readout>
IC50

>  <reported-value>
810

$$$$

I. CCCc1cc(-c2cc(NCCc3c(C)sc4c(C)cc(F)cc34)ncn2)ccc1C(=O)NC [Example 210]
II. COc1cc(Cl)cc2c(CCNc3cc(-c4ccc(C(=O)O)c(OC5CCC5)c4F)ncn3)c(C)oc12 [Example 147]
III. CCCCOc1cc(-c2cc(NCCc3c(C)sc4c(C)cc(F)cc34)ncn2)cc(F)c1C(=O)O [Example 144]
Hello, I need these entries ordered by IC50, highest reading first. Thanks! Please reply with the labels ordered as requested. Many thanks.
II, I, III

* * *

Molecular target: PTGER2 (EP2) (Homo sapiens)
Experiment: hEP2 b-arrestin assay (PathHunter HEK 293 PTGER2 b-arrestin cells)
Settings: antagonistic activity, beta-arrestin assay; read-out: hEP2 b-arr IC50
pIC50: −log10 of the molar value.
assay-readout: pIC50

These solved cases illustrate the format of a correct answer.
>  <compound>
COc1cc(Cl)cc2c(CCNc3cc(-c4cc(C)c(C(=O)O)s4)ncn3)c(C)oc12 [Example 1]

>  <study-target>
PTGER2 (EP2) (Homo sapiens)

>  <reported-value>
7.23

$$$$
>  <compound>
CCc1oc2c(C)cc(F)cc2c1CCNc1cc(-c2ccc(C(=O)O)c(SC)c2)ncn1 [Example 22]

>  <study-target>
PTGER2 (EP2) (Homo sapiens)

>  <reported-value>
7.00

$$$$
>  <compound>
CSc1cc(-c2cc(NCCc3c(C#N)sc4c(C)cc(F)cc34)ncn2)ccc1C(=O)O [Example 12]

>  <study-target>
PTGER2 (EP2) (Homo sapiens)

>  <reported-value>
8.40

$$$$

I. CCOc1cc(-c2cc(NCCc3c(C)sc4c(C)ccc(Cl)c34)ncn2)ccc1C(=O)O [Example 66]
II. CSc1cc(-c2cc(NCCc3c(C#N)sc4ccccc34)ncn2)ccc1C(=O)O [Example 173]
Quick one: lower pIC50, I or II ? Kindly give the label for the entry you pick.
I
(I: 7.57, II: 8.10)

P. CCOc1cc(-c2cc(NCCc3c(C)sc4c(C)cc(F)cc34)ncn2)ccc1CC(=O)O [Example 110]
Q. Cc1sc2c(C)cc(F)cc2c1CCNc1cc(-c2ccc(C(=O)O)c(OC3CCC3)c2)ncn1 [Example 138]
Determine, for P and Q , which has the greater value of pIC50. Kindly give the label for the entry you pick.
Q
(Q: 7.85, P: 7.60)

I. Cc1sc2c(C)cc(F)cc2c1CCNc1cc(-c2cc(C(F)(F)F)c(C(=O)O)s2)ncn1 [Example 46]
II. COc1cc(F)c(F)c2c(CCNc3cc(-c4cc(F)c(C(=O)O)c(OC5CCC5)c4)ncn3)c(C)oc12 [Example 150]
Determine, for I and II , which has the greater value of pIC50. Kindly give the label for the entry you pick.
I

1. CCOc1cc(-c2cc(NCCc3c(C)sc4c(C)cc(F)cc34)ncn2)sc1/C=C/C(=O)O [Example 96]
2. COc1cc(-c2cc(NCCc3c(C#N)sc4ccccc34)ncn2)ccc1CC(=O)O [Example 174]
3. CCOc1cc(-c2cc(NCCc3c(C)sc4c(C)ccc(F)c34)ncn2)sc1C(=O)O [Example 25]
With regard to pIC50, arrange the entries in ascending order, please. Please reply with the labels ordered as requested. Many thanks.
2, 1, 3
(2: 6.87, 1: 7.70, 3: 8.70)

P. COc1cc(Cl)cc2c(CCNc3cc(-c4ccc(C(=O)O)c(OC5CC5)c4)ncn3)c(C)oc12 [Example 83]
Q. Cc1sc2c(C)cc(F)cc2c1CCNc1cc(-c2ccc(NC=O)cc2)ncn1 [Example 188]
R. COc1ccc(F)c2c(CCNc3cc(-c4cc(F)c(C(=O)O)c(OC5CCC5)c4)ncn3)c(C)sc12 [Example 149]
S. CCc1oc2c(C)cc(F)cc2c1CCNc1cc(-c2cc(C)c(C(=O)O)s2)ncn1 [Example 7]
Hello, I need these entries ordered by pIC50, highest reading first. Thanks! Please reply with the labels ordered as requested. Many thanks.
R, P, Q, S

a. Cc1sc2c(C)cc(F)cc2c1CCNc1cc(-c2cc3cccc(C(=O)O)c3s2)ncn1 [Example 222]
b. CCCOc1cc(-c2cc(NCCc3c(C)sc4c(C)cc(F)cc34)ncn2)ccc1CC(=O)O [Example 190]
c. CCOc1cc(-c2cc(NCCc3c(C)sc4c(C)cc(F)cc34)ncn2)c(F)cc1CC(=O)O [Example 217]
d. CCc1nc(-c2cc(NCCc3c(C)sc4c(C)cc(F)cc34)ncn2)sc1C(=O)O [Example 161]
Hello, I need these entries ordered by pIC50, highest reading first. Thanks! Please reply with the labels ordered as requested. Many thanks.
a, b, d, c

* * *

Biological target: EP2 receptor (Homo sapiens, UniProt P43116)
Construct: SF295 glioblastoma cells express high endogenous EP2 and no EP4
Sequence (P43116 whole entry): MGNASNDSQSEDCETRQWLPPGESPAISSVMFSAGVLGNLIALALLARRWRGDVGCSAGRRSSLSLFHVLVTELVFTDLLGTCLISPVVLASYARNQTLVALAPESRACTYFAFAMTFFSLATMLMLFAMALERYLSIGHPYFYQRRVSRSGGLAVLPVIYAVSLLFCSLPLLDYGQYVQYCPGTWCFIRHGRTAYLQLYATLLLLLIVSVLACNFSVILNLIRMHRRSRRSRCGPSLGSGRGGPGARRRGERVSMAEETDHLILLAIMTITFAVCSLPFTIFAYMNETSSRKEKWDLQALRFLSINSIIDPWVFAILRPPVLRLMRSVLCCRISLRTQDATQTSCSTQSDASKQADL
Assay: hEP2 cAMP assay (SF295 glioblastoma cells, HTRF cAMP, PGE2 stimulation)
Conditions: antagonistic activity
pIC50: −log10 of the molar value.
assay-readout: pIC50

These solved cases illustrate the format of a correct answer.
>  <structure>
CCOc1cc(-c2cc(NCCc3csc4ccccc34)ncn2)ccc1OCC(=O)O

>  <reported-value>
6.44

$$$$
>  <structure>
CCc1nc(-c2cc(NCCc3c(C)sc4c(C)cc(F)cc34)ncn2)sc1-c1noc(=O)[nH]1

>  <reported-value>
7.70

$$$$
>  <structure>
CCOc1cc(-c2cc(NCCc3c(C)sc4c(C)ccc(F)c34)ncn2)ccc1OCC(=O)O

>  <reported-value>
6.95

$$$$
>  <structure>
CCOc1cc(-c2cc(NCCc3c(C)sc4c(OC)ccc(F)c34)ncn2)ccc1OCC(=O)O

>  <reported-value>
7.00

$$$$

A. COc1ccc(F)c2c(CCNc3cc(-c4cc(F)c(C(=O)O)c(OC5CCC5)c4)ncn3)c(C)sc12
B. CSc1cc(-c2cc(NCCc3c(C)sc4c(C)cccc34)ncn2)ccc1C(=O)O
Quick one: lower pIC50, A or B ? Kindly give the label for the entry you pick.
A
(A: 6.94, B: 8.22)

a. CCOc1cc(-c2cc(NCCc3c(C)oc4c(OC)cc(Cl)cc34)ncn2)ccc1C(=O)O
b. CCOc1cc(-c2cc(NCCc3c(C)sc4c(C)cccc34)ncn2)ccc1OCC(=O)O
Quick one: lower pIC50, a or b ? Kindly give the label for the entry you pick.
a
(a: 7.10, b: 7.40)

P. CCOc1cc(-c2cc(NCCc3c(C)sc4c(C)cc(F)cc34)ncn2)sc1CC(=O)O
Q. CCOc1cc(-c2cc(NCCc3c(C)sc4c(C)cc(F)cc34)ncn2)sc1C(=O)O
Determine, for P and Q , which has the greater value of pIC50. Kindly give the label for the entry you pick.
Q
(Q: 8.70, P: 7.02)

* * *

Biological target: EP4 receptor (Homo sapiens, UniProt P35408)
Construct: BT549 breast cancer cells, express high endogenous EP4 levels and very low EP2 levels
Sequence (P35408 whole entry): as the sequence (P35408 whole entry) above
Experiment: hEP4 cAMP assay (BT549 breast cancer cells, HTRF cAMP, PGE2 stimulation)
Conditions: antagonistic activity, PGE2 6 nM (EC80)
pIC50: −log10 of the molar value.
assay-readout: pIC50

A. CSc1cc(-c2cc(NCCc3c(C)sc4c(C)cccc34)ncn2)cc(Cl)c1C(=O)O [Example 50]
B. CCOc1cc(-c2cc(NCCc3c(Br)sc4c(C)cc(F)cc34)ncn2)ccc1C(=O)O [Example 58]
C. Cc1sc2c(C)cc(F)cc2c1CCNc1cc(-c2cc(C(F)(F)F)c(C(=O)O)s2)ncn1 [Example 46]
D. CCOc1cc(-c2cc(NCCc3c(C)oc4c(OC)cc(Cl)cc34)ncn2)ccc1C(=O)O [Example 70]
E. CCOc1cc(-c2cc(NCCc3c(C)sc4c(OC)ccc(F)c34)ncn2)ccc1C(=O)O [Example 55]
Returns the items ordered by pIC50, from maximum to minimum. Please reply with the labels ordered as requested. Many thanks.
C, E, B, A, D

1. CCOc1cc(-c2cc(NCCc3c(C)sc4c(C)ccc(F)c34)ncn2)ccc1CC(=O)O [Example 107]
2. CCCOc1cc(-c2cc(NCCc3c(C#N)sc4c(C)cc(F)cc34)ncn2)ccc1CC(=O)O [Example 169]
Quick one: lower pIC50, 1 or 2 ? Kindly give the label for the entry you pick.
1
